Answer each item with its documented MT4 cell, concentration reducing the number of viable uninfected cells by 50%.
- System: MT4 cells
- experiment.notes: Toxicity toward MT4 cells
Kindly answer with a numeric value in µg/mL, unit omitted.

[ask] Report its MT4 cell, concentration reducing the number of viable uninfected cells by 50% with MT4 cells as the test system: Nc1ncnc2c1ncn2CCOCP(=O)(O)O [PMEA 4, 9-[2-(phosphonomethoxy)ethyl]adenine, reference compound]
[reply] 274

[ask] Provide MT4 cell, concentration reducing the number of viable uninfected cells by 50%, recorded with MT4 cells, of "COC1=C(OC)/C(=C/COP(=O)(O)COCCn2cnc3c(N)ncnc32)OC1=O"
[reply] 265

[ask] State recorded MT4 cell, concentration reducing the number of viable uninfected cells by 50% with MT4 cells, entry Nc1nc2c(ncn2CCOCP(=O)(O)O)c(=O)[nH]1 [PMEG 27, 9-[2-(phosphonomethoxy)ethyl]guanine, reference compound] , no comment.
[reply] 16

###

- Tested on: herpes simplex type 1 virus (HSV-1) (KOS)
- experiment.notes: Inhibition of HSV-1 cytopathogenicity in Vero cell culture
- Assay type: cell-based
- experimental.context: Human alphaherpesvirus 1, Vero, read-out: IC50 HSV-1 (KOS)
measured.attribute: log10 IC50 (log10 of the value in µg/mL)
Values below are the log10 of the recorded IC50, with µg/mL as the unit.

[ask] Specify reported log10 IC50 for the compound shown: Nc1ncnc2ncn(COCCO)c12 [Compound 14, 7-[(2-Hydroxyethoxy)methyl]adenine]
[reply] -0.24

[ask] Note down log10 IC50 recorded for Nc1nc2c(ncn2CCOCP(=O)(O)O)c(=O)[nH]1 [PMEG 27, 9-[2-(phosphonomethoxy)ethyl]guanine, reference compound]
[reply] 0.66

[ask] Note log10 IC50 for the compound shown: Nc1ncnc2c1ncn2COCCO [Compound 1, 9-[(2-Hydroxyethoxy)methyl]adenine, reference compound]
[reply] 0.65

[ask] Determine its reported log10 IC50: Nc1nc2ncn(COCCO)c2c(=O)[nH]1 [Compound 9, 7-[(2-Hydroxyethoxy)methyl]guanine]
[reply] 0.04

[ask] Give the measured log10 IC50 for "COC1=C(OC)/C(=C/COP(=O)(O)OC[C@H]2O[C@@H](n3cnc4c(N)ncnc43)[C@H](O)[C@@H]2OP(=O)(O)COCCn2cnc3ncnc(N)c32)OC1=O"
[reply] 0.48

[ask] Please supply the value of reported log10 IC50 for the item Nc1nc2c(ncn2COCCO)c(=O)[nH]1 [acyclovir 2, 9-[(2-hydroxyethoxy)methyl]guanine, reference compound]
[reply] -0.34

[ask] Please give the documented log10 IC50 of "Nc1ncnc2c1ncn2[C@@H]1O[C@H](COP(=O)(O)O)[C@@H](OP(=O)(O)COCCn2cnc3ncnc(N)c32)[C@H]1O"
[reply] 0.85

[ask] Please report log10 IC50 for the following compound: "COC1=C(OC)/C(=C/COP(=O)(O)COCCn2cnc3c(N)ncnc32)OC1=O"
[reply] 0.57

###

- experiment.notes: Lipophilicity, 1-octanol/water partition coefficient
For each of the molecules below, state its logP at […].
Just the number, please.

[ask] Using the record for Nc1ncnc2ncn(CCOCP(=O)(O)O)c12 [Compound 20, 7-[2-(Phosphonomethoxy)ethyl]adenine] , state its measured logP at […].
[reply] 0.95

[ask] Look up and report measured logP at […] for this entry: Nc1ncnc2c1ncn2CCOCP(=O)(O)O [PMEA 4, 9-[2-(phosphonomethoxy)ethyl]adenine, reference compound]
[reply] 0.69

###

- tgt: calf mucosal adenosine deaminase (ADA, EC 3.5.4.4) (Bos taurus)
- Sequence (P56658 1-363): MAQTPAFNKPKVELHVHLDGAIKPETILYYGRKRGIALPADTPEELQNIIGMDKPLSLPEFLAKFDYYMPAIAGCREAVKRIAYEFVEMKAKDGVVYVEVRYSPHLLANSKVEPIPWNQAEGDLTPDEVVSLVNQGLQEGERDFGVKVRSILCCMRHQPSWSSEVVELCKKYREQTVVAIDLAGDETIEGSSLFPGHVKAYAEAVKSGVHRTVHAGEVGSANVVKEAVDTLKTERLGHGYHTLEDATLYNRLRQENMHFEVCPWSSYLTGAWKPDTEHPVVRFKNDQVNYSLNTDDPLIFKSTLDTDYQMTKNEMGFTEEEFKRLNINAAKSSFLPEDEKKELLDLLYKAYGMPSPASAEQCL
- experiment.notes: Substrate activity and competitive inhibition of adenosine deaminase
- Type: biochemical
- experimental.context: compound as ADA substrate, relative to ara A 3 = 1.0
measured.attribute: rel. Vmax

[ask] Answer with reported rel. Vmax of Nc1ncnc2c1ncn2[C@@H]1O[C@H](CO)[C@@H](O)[C@@H]1O [ara A 3, 9-(β-D-arabinofaranosyl)adenine, reference compound]
[reply] 1.0

[ask] Look up and report measured rel. Vmax for this entry: Nc1ncnc2c1ncn2[C@@H]1O[C@H](COP(=O)(O)O)[C@@H](OP(=O)(O)COCCn2cnc3ncnc(N)c32)[C@H]1O [Compound 24]
[reply] 9.78 × 10^−2

[ask] Please look at this molecule and report its rel. Vmax: Nc1ncnc2c1ncn2COCCO [Compound 1, 9-[(2-Hydroxyethoxy)methyl]adenine, reference compound]
[reply] 1.48 × 10^−2

[ask] Using the record for Nc1ncnc2ncn(COCCO)c12 [Compound 14, 7-[(2-Hydroxyethoxy)methyl]adenine] , state its measured rel. Vmax.
[reply] 1.50 × 10^−6

###

- Test system: HIV-2 (LAV-2)
- experiment.notes: Inhibition of HIV-2 cytopathogenicity in MT4 cells
- Assay type: cell-based, human immunodeficiency virus
- experimental.context: Human immunodeficiency virus 2; MT4 cells, average of duplicates; read-out: IC50 HIV-2 (LAV-2)
measured.attribute: IC50 (µg/mL)
Numbers only; they are read as µg/mL.

[ask] Report IC50 under test system HIV-2 (LAV-2) for "COC1=C(OC)/C(=C/COP(=O)(O)COCCn2cnc3c(N)ncnc32)OC1=O" .
[reply] 1

[ask] For HIV-2 (LAV-2), give IC50 of the listed compound: Nc1ncnc2ncn(CCOCP(=O)(O)O)c12 [Compound 20, 7-[2-(Phosphonomethoxy)ethyl]adenine]
[reply] 9.1

[ask] Under HIV-2 (LAV-2): report IC50 of "COC1=C(OC)/C(=C/COP(=O)(O)OC[C@H]2O[C@@H](n3cnc4c(N)ncnc43)[C@H](O)[C@@H]2OP(=O)(O)COCCn2cnc3ncnc(N)c32)OC1=O" .
[reply] 4.2

[ask] Please look at Nc1nc2c(ncn2CCOCP(=O)(O)O)c(=O)[nH]1 [PMEG 27, 9-[2-(phosphonomethoxy)ethyl]guanine, reference compound] and tell me its recorded IC50 on HIV-2 (LAV-2).
[reply] 18

[ask] Write down measured IC50 (HIV-2 (LAV-2)) for this compound. Nc1ncnc2c1ncn2CCOCP(=O)(O)O [PMEA 4, 9-[2-(phosphonomethoxy)ethyl]adenine, reference compound]
[reply] 3.8

###

- Test system: Vero cell thymidine kinase
- experiment.notes: Phosphorylation of nucleosides by Vero cell thymidine kinase
- Assay type: biochemical
- experimental.context: relative to thymidine = 1.0 × 10^2
measured.attribute: rel. Vmax, Vero cell thymidine kinase

[ask] Fill in rel. Vmax, Vero cell thymidine kinase for record "Cc1cn([C@H]2C[C@H](O)[C@@H](CO)O2)c(=O)[nH]c1=O"
[reply] 1.0 × 10^2

[ask] Determine its reported rel. Vmax, Vero cell thymidine kinase: Nc1ncnc2c1ncn2COCCO [Compound 1, 9-[(2-Hydroxyethoxy)methyl]adenine, reference compound]
[reply] <3.0

[ask] Kindly indicate its recorded rel. Vmax, Vero cell thymidine kinase. Item: Nc1ncnc2c1ncn2[C@@H]1O[C@H](CO)[C@@H](O)[C@@H]1O [ara A 3, 9-(β-D-arabinofaranosyl)adenine, reference compound]
[reply] <3.0

[ask] Report measured rel. Vmax, Vero cell thymidine kinase; entry is Nc1nc2c(ncn2COCCO)c(=O)[nH]1 [acyclovir 2, 9-[(2-hydroxyethoxy)methyl]guanine, reference compound]
[reply] <3.0

[ask] Item Nc1nc2ncn(COCCO)c2c(=O)[nH]1 [Compound 9, 7-[(2-Hydroxyethoxy)methyl]guanine] : provide rel. Vmax, Vero cell thymidine kinase
[reply] 12.0

[ask] Look up rel. Vmax, Vero cell thymidine kinase of Nc1ncnc2ncn(COCCO)c12 [Compound 14, 7-[(2-Hydroxyethoxy)methyl]adenine] and report it.
[reply] <3.0

###

- experiment.notes: Solubility in water (phosphate buffer, UV absorbance)
- experimental.context: pH 6.8, aqueous buffer, thermodynamic from solid
measured.attribute: solubility at 20 h (µg/mL)
Supply the numeric figure in µg/mL, leaving out any unit text.

[ask] Answer with reported solubility at 20 h of Nc1ncnc2ncn(CCOCP(=O)(O)O)c12 [Compound 20, 7-[2-(Phosphonomethoxy)ethyl]adenine]
[reply] 2890

[ask] Identify the reported solubility at 20 h for the following entry. Nc1ncnc2c1ncn2CCOCP(=O)(O)O [PMEA 4, 9-[2-(phosphonomethoxy)ethyl]adenine, reference compound]
[reply] 1970

###

- experiment.notes: Lipophilicity, 1-octanol/water partition coefficient
- experimental.context: 1-octanol/water (0.10 M phosphate buffer)
Answer each item with its documented logP at […].

[ask] Retrieve logP at […] measured for Nc1ncnc2ncn(COCCO)c12 [Compound 14, 7-[(2-Hydroxyethoxy)methyl]adenine] and print it.
[reply] 1.24

[ask] Complete the entry with logP at […] for Nc1ncnc2c1ncn2COCCO [Compound 1, 9-[(2-Hydroxyethoxy)methyl]adenine, reference compound]
[reply] 0.98

[ask] Please report the measured logP at […] for "COC1=C(OC)/C(=C/COP(=O)(O)COCCn2cnc3c(N)ncnc32)OC1=O"
[reply] 2.09

[ask] Look up and report measured logP at […] for this entry: Nc1nc2ncn(COCCO)c2c(=O)[nH]1 [Compound 9, 7-[(2-Hydroxyethoxy)methyl]guanine]
[reply] -0.6

[ask] Quote logP at […] reported for Nc1nc2c(ncn2COCCO)c(=O)[nH]1 [acyclovir 2, 9-[(2-hydroxyethoxy)methyl]guanine, reference compound] please.
[reply] -0.48

[ask] Query logP at […] for "COC1=C(OC)/C(=C/COP(=O)(O)OC[C@H]2O[C@@H](n3cnc4c(N)ncnc43)[C@H](O)[C@@H]2OP(=O)(O)COCCn2cnc3ncnc(N)c32)OC1=O"
[reply] 1.37

[ask] Complete the entry with logP at […] for Nc1nc2c(ncn2CCOCP(=O)(O)O)c(=O)[nH]1 [PMEG 27, 9-[2-(phosphonomethoxy)ethyl]guanine, reference compound]
[reply] 0.14
